Measured on: MMP-2 (Homo sapiens)
Construct: purchased Oncogene Research Products (Calbiochem) PF023
Sequence (P08253 110-660): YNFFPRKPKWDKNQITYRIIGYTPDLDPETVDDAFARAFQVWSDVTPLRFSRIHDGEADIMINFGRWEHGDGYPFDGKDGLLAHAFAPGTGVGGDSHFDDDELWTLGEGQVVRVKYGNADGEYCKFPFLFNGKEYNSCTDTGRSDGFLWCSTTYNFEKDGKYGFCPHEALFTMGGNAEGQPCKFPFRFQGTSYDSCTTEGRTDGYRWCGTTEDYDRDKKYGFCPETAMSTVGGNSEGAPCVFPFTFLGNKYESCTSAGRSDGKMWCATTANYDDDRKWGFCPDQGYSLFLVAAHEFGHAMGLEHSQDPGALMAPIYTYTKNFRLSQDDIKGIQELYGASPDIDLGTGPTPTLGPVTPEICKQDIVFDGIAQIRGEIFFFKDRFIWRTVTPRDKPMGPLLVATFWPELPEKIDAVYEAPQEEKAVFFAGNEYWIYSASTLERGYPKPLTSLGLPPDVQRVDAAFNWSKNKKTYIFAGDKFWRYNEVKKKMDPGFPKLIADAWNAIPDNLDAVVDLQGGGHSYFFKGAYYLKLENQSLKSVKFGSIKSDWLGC
Assay text: In-vitro fluorescence assay of MMP-2 activity
Assay type: biochemical
Condition set: recombinant human MMP-2; read-out: MMP-2 IC50
pIC50: −log10 of the molar value.
Quantity name: pIC50

1. CC(C)[C@@H](NS(=O)(=O)c1ccc(-c2ccc(OCc3nc4ccccc4n3C)cc2)cc1)C(=O)O : 5.95
2. Cc1c(C(=O)Nc2ccc(-c3ccc(S(=O)(=O)N[C@H](C(=O)O)C(C)C)cc3)cc2)oc2cccc(-c3cccnc3)c12 : 5.87
3. Cc1c(C(=O)Nc2ccc(-c3ccc(S(=O)(=O)N[C@H](C(=O)O)C(C)C)cc3)cc2)oc2cccc(-c3ccncc3)c12 : 5.57
4. COCCCc1cccc2oc(C(=O)Nc3ccc(-c4ccc(S(=O)(=O)N[C@H](C(=O)O)C(C)C)cc4)cc3)c(C)c12 : 5.40
5. COc1c(C#N)ccc2oc(COc3ccc(-c4ccc(S(=O)(=O)N[C@H](C(=O)O)C(C)C)cc4)cc3)c(C)c12 : 7.19
6. Cc1c(C(=O)Nc2ccc(-c3ccc(S(=O)(=O)N[C@H](C(=O)O)C(C)C)cc3)cc2)oc2cccc(O)c12 : 6.42
7. Cc1c(C(=O)Nc2ccc(-c3ccc(S(=O)(=O)N[C@H](C(=O)O)C(C)C)cc3)cc2)oc2cccc(C#CCO)c12 : 5.47
8. Cc1nn(C)c2sc(C(=O)Nc3ccc(-c4ccc(S(=O)(=O)N[C@H](C(=O)O)C(C)C)cc4)cc3)cc12 : 5.36
9. COc1c(Br)ccc2oc(COc3ccc(-c4ccc(S(=O)(=O)N[C@@H](C(=O)O)C(C)C)cc4)cc3)c(C)c12 : 6.87
10. CC(C)[C@H](NS(=O)(=O)c1ccc(-c2ccc(NC(=O)c3csnn3)cc2)cc1)C(=O)O : 8.70
11. COc1c(Cl)ccc2oc(COc3ccc(-c4ccc(S(=O)(=O)N[C@H](C(=O)O)C(C)C)cc4)cc3)c(C)c12 : 6.89
12. Cc1c(C(=O)Nc2ccc(-c3ccc(S(=O)(=O)N(C)[C@H](C(=O)O)C(C)C)cc3)cc2)oc2cccc(C#N)c12 : 5.80
13. Cc1c(C(=O)Nc2ccc(-c3ccc(S(=O)(=O)N[C@H](C(=O)O)C(C)C)cc3)cc2)oc2cccc(OCC(=O)N(C)C)c12 : 5.36
14. C=Cc1cccc2oc(C(=O)Nc3ccc(-c4ccc(S(=O)(=O)N(C)[C@H](C(=O)O)C(C)C)cc4)cc3)c(C)c12 : 6.05

###

Measured on: MMP-2 (Homo sapiens)
Construct: purchased Oncogene Research Products (Calbiochem) PF023
Sequence (P08253 110-660): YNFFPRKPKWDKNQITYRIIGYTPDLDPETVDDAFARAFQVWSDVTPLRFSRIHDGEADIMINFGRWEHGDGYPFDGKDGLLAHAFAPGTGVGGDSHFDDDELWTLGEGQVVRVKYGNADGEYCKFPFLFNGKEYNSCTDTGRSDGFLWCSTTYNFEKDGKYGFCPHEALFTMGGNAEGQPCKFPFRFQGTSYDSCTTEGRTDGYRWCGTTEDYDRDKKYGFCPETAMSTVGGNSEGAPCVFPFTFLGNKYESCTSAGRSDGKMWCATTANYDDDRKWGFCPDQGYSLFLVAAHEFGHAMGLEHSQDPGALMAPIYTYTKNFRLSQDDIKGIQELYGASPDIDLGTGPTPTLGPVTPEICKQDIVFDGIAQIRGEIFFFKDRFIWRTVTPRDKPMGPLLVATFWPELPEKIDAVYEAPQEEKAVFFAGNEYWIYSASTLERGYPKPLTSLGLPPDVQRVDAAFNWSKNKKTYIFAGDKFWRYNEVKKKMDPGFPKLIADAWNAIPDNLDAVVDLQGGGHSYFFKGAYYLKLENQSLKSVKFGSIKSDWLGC
Assay text: In-vitro fluorescence assay of MMP-2 activity
Format: biochemical
Condition set: recombinant human MMP-2; read-out: MMP-2 IC50
So basically, if IC50 comes in under 200 nM it's True, and if it's 200 nM or more it's False.

1) CC(C)[C@@H](NS(=O)(=O)c1ccc(-c2ccc(C[S+]([O-])c3cc4ccccc4o3)cc2)cc1)C(=O)O (stereo partly drawn) : True
2) COc1c(C#N)ccc2oc(C(=O)Nc3ccc(-c4ccc(S(=O)(=O)N[C@H](C(=O)O)C(C)C)cc4)cc3)c(C)c12 : False
3) CC(=O)N(C)c1cccc2oc(C(=O)Nc3ccc(-c4ccc(S(=O)(=O)N[C@H](C(=O)O)C(C)C)cc4)cc3)c(C)c12 : False
4) COC(C)c1cccc2oc(C(=O)Nc3ccc(-c4ccc(S(=O)(=O)N[C@H](C(=O)O)C(C)C)cc4)cc3)c(C)c12 (stereo partly drawn) : False
5) CCc1cccc2oc(COc3ccc(-c4ccc(S(=O)(=O)N[C@H](C(=O)O)C(C)C)cc4)cc3)c(C)c12 : False
6) Cc1c(C(=O)Nc2ccc(-c3ccc(S(=O)(=O)N[C@H](C(=O)O)C(C)C)cc3)cc2)oc2cccc(-c3nn[nH]n3)c12 : False

###

Measured on: MMP-13 (Homo sapiens)
Construct: made in house
Assay text: In-vitro fluorescence assay of MMP-13 activity
Assay type: biochemical
Condition set: recombinant human catalytic domain of MMP-13; read-out: MMP-13 IC50
// IC50 lookup, one value per entry
Quantity name: IC50 (nM)

1. NC(=O)C[C@H](NS(=O)(=O)c1ccc(-c2ccc(NC(=O)c3cc4ccccc4o3)cc2)cc1)C(=O)O : 2.5
2. CC(C)[C@H](NS(=O)(=O)c1ccc(-c2ccc(NC(=O)c3nc4ccccc4o3)cc2)cc1)C(=O)O : 0.8
3. CC(C)[C@H](NS(=O)(=O)c1ccc(-c2ccc(NC(=O)c3cc4c(ccc5ccccc54)o3)cc2)cc1)C(=O)O : 0.5
4. COc1ccc2oc(C(=O)Nc3ccc(-c4ccc(S(=O)(=O)N[C@H](C(=O)O)C(C)C)cc4)cc3)cc2c1 : 0.7
5. CC(C)[C@@H](NS(=O)(=O)c1ccc(-c2ccc(NC(=O)c3ccco3)cc2)cc1)C(=O)O : 29
6. Cc1c(C(=O)Nc2ccc(-c3ccc(S(=O)(=O)N[C@H](C(=O)O)C(C)O)cc3)cc2)oc2cccc(NS(C)(=O)=O)c12 (stereo partly shown) : 10.9
7. Cc1c(C(=O)Nc2ccc(-c3ccc(S(=O)(=O)N[C@H](C(=O)O)C(C)C)cc3)cc2)oc2ccccc12 : 5.9

###

Measured on: MMP-2 (Homo sapiens)
Construct: purchased Oncogene Research Products (Calbiochem) PF023
Assay text: In-vitro fluorescence assay of MMP-2 activity
Type: biochemical
Condition set: recombinant human MMP-2; read-out: MMP-2 IC50
Quantity name: IC50 (nM)

1) Cc1c(C(=O)Nc2ccc(-c3ccc(S(=O)(=O)N[C@H](C(=O)O)C(C)C)cc3)cc2)oc2cccc(C#CC(C)(C)C)c12 [Example 34] : 2500
2) COc1c(Cl)cc(Cl)c2oc(C(=O)Nc3ccc(-c4ccc(S(=O)(=O)N[C@H](C(=O)O)C(C)C)cc4)cc3)c(C)c12 [Example 117] : 20000
3) Cc1c(C(=O)Nc2ccc(-c3ccc(S(=O)(=O)N[C@H](C(=O)O)C(C)C)cc3)cc2)oc2cccc(OCc3ccccn3)c12 [Example 178] : 3320
4) COc1c(Br)ccc2oc(C(=O)Nc3ccc(-c4ccc(S(=O)(=O)N[C@H](C(=O)O)C(C)C)cc4)cc3)c(C)c12 [Example 118] : 1700
5) Cc1c(C(=O)Nc2ccc(-c3ccc(S(=O)(=O)N[C@H](C(=O)O)C(C)C)cc3)cc2)oc2cccc(CCCO)c12 [Example 27] : 4410
6) COc1c(Br)ccc2oc(CNc3ccc(-c4ccc(S(=O)(=O)N[C@H](C(=O)O)C(C)C)cc4)cc3)c(C)c12 [Example 150] : 198
7) Cc1c(C(=O)Nc2ccc(-c3ccc(S(=O)(=O)N[C@H](C(=O)O)C(C)C)cc3)cc2)oc2cccc(OCC3CC3)c12 [Example 51] : 7110
8) Cc1c(C(=O)Nc2ccc(-c3ccc(S(=O)(=O)N[C@H](C(=O)O)C(C)C)cc3)cc2)oc2cccc(NC(=O)OC(C)(C)C)c12 [Example 59] : 3270
9) CC(C)[C@H](NS(=O)(=O)c1ccc(-c2ccc(NC(=O)c3cc4ccccc4o3)cc2)cc1)C(=O)O [Example 2] : 6.5
10) COc1c(C)ccc2oc(C(=O)Nc3ccc(-c4ccc(S(=O)(=O)N[C@H](C(=O)O)C(C)C)cc4)cc3)c(C)c12 [Example 125] : 1610
11) CCOC(=O)COc1cccc2oc(C(=O)Nc3ccc(-c4ccc(S(=O)(=O)N[C@H](C(=O)O)C(C)C)cc4)cc3)c(C)c12 [Example 157] : 2050
12) CCc1c(C(=O)Nc2ccc(-c3ccc(S(=O)(=O)N[C@H](C(=O)O)C(C)C)cc3)cc2)oc2ccccc12 [Example 58] : 1770
13) CCc1ccc2oc(C(=O)Nc3ccc(-c4ccc(S(=O)(=O)N[C@H](C(=O)O)C(C)C)cc4)cc3)c(C)c2c1OC [Example 86] : 2500
